# Study System: AXL (human catalytic domain) (Homo sapiens, UniProt P30530)
# Construct: purchased Upstate Ltd. 14-512
# Sequence (P30530 473-894): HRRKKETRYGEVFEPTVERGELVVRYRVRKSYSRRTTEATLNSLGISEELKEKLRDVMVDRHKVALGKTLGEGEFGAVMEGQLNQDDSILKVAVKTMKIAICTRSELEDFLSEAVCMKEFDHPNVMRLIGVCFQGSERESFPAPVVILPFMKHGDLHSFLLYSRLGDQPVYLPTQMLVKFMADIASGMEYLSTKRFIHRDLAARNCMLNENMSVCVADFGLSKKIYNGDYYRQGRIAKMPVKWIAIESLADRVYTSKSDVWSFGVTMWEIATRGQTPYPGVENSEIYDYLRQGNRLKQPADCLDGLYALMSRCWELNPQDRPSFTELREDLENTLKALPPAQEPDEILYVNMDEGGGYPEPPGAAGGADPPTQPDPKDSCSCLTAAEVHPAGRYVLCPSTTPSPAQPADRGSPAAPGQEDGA
# Procedure Text: AXL (human catalytic domain) Enzyme Activity Assay (IMAP fluorescence polarisation)
# Type: biochemical
# Test Context: further data set (WW-001 through WW-169, XX-001 through XX-469, YY-001 through YY-016, ZZ-001 through ZZ-003); 150 μM ATP
Reported Endpoint: IC50

Study these solved cases before continuing.
What is its IC50 for AXL (human catalytic domain) (Homo sapiens, UniProt P30530)? Entry: `FC(F)(F)c1ccc(-c2nccc3nc(Nc4ccc(OCCN5CCCC5)cc4)nn23)cc1`
100 to 1000 nM

What do you get for `CCN(CC)CCOc1cc(Nc2nc3cccc(-c4ccc(OC)cc4)n3n2)cc(F)c1F` ?
100 to 1000 nM

What do you get for `O=C(Nc1nc2cccc(-c3cccc(O)c3)n2n1)C1CC1` ?
1000 to 10000 nM

What do you get for `c1cc(-c2ccc3c(c2)OCO3)n2nc(Nc3ccc(OCCN4CCCC4)cc3)nc2c1` ?
≤ 100 nM

What do you get for `O=C(Nc1cccc(Cl)c1)Nc1cccc(-c2cccc3nc(Nc4ccc(OCCN5CCCC5)cc4)nn23)c1` ?
100 to 1000 nM

More entries:
What is its IC50 for AXL (human catalytic domain) (Homo sapiens, UniProt P30530)? Entry: `CS(=O)(=O)c1ccc(-c2cccc3nc(NC(=O)C4CC4)nn23)cc1`
1000 to 10000 nM

What do you get for `O=S(=O)(Cc1cccc(C(F)(F)F)c1)n1cc(-c2cccc3nc(Nc4ccc(OCCN5CCCC5)cc4)nn23)cn1` ?
100 to 1000 nM

What do you get for `COc1ccc(-c2cccc3nc(Nc4ccc(OCCN5CCCC5)cc4)nn23)cc1` ?
1000 to 10000 nM

What do you get for `CC(C)Oc1cccc(-c2cccc3nc(Nc4ccc(OCCN5CCCC5)cc4)nn23)c1` ?
1000 to 10000 nM

What do you get for `Cc1cccc(Cn2cc(-c3cccc4nc(Nc5ccc(OCCN6CCCC6)cc5)nn34)cn2)c1` ?
≤ 100 nM
